Origin of the recorded values: patent US6100377A

Please respond with reported % Inhibition for every item in the list.
- system under test: F1-gp120 binding to CD4+ human cells (Human immunodeficiency virus type 1 group M subtype B, UniProt P04578)
- Construct: Recombinant gp-120 was obtained from Raymond Sweet at Smith Kline Beecham and directly fluoresceinated; purchased Raymond Sweet at Smith Kline Beecham (obtained, not a catalogue product); host or cells: CD4+ human cells (Jurkat CD4+)
- assay explanation: Inhibition of fluoresceinated gp120 binding to CD4+ cells (flow microfluorimetry)
- condition summary: compound 1 mg
Bridge positions count the residues as written; N and C are the ends. Peptide text beside a SMILES is read from it.
Answers are plain numbers, in %.

Query string: Find the recorded % Inhibition belonging to CC(C)[C@@H]1NC(=O)[C@H](CCC(=O)O)NC(=O)[C@@H](NC(=O)[C@@H](N)Cc2ccccc2)CSSC[C@@H](C(=O)N[C@@H](Cc2ccc(O)cc2)C(=O)O)NC(=O)[C@H](CCC(=O)O)NC(=O)[C@H](CCCCN)NC(=O)[C@H](CCC(N)=O)NC(=O)[C@H](CC(=O)O)NC(=O)[C@H](CCC(=O)O)NC1=O [SEQ ID NO:8, F, C, E, V, E, D, Q, K, E, C, Y] (H-FCEVEDQKECY-OH; disulfide 2-10) and report it.
Result string: 83

Query string: Field entry: C[C@@H](O)[C@@H]1NC(=O)[C@@H](NC(=O)[C@@H](N)Cc2ccccc2)CSSC[C@@H](C(=O)N[C@@H](Cc2ccc(O)cc2)C(=O)O)NC(=O)[C@H](CCCCN)NC(=O)[C@H](CO)NC(=O)[C@@H]2CCCN2C(=O)CNC(=O)[C@H](CCCCN)NC1=O [SEQ ID NO:3, F, C, T, K, G, P, S, K, C, Y] (H-FCTKGPSKCY-OH; disulfide 2-9)
Result string: 83

Query string: Likewise for CC(C)C[C@@H]1NC(=O)[C@H](Cc2ccccc2)NC(=O)[C@H](CO)NC(=O)CNC(=O)[C@H](CCC(N)=O)NC(=O)[C@H](CC(N)=O)NC(=O)[C@@H](NC(=O)[C@@H](N)Cc2ccc(O)cc2)CSSC[C@@H](C(=O)N[C@@H](Cc2ccc(O)cc2)C(=O)O)NC1=O [SEQ ID NO:1, Y, C, N, Q, G, S, F, L, C, Y] (H-YCNQGSFLCY-OH; disulfide 2-9) ?
Result string: 33

Now for another entry.
Query string: Need % Inhibition, item CC(C)C[C@@H]1NC(=O)[C@@H](NC(=O)[C@@H](N)Cc2ccccc2)CSSC[C@@H](C(=O)N[C@@H](Cc2ccc(O)cc2)C(=O)O)NC(=O)[C@H](CC(C)C)NC(=O)[C@H](C(C)C)NC(=O)[C@H](CCC(N)=O)NC(=O)CNC(=O)[C@H](CO)NC(=O)[C@H](CC(=O)O)NC(=O)[C@H](CO)NC1=O [SEQ ID NO:9, F, C, L, S, D, S, G, Q, V, L, C, Y] (H-FCLSDSGQVLCY-OH; disulfide 2-11)
Result string: 8
